Value source: ChEMBL document CHEMBL4613220

target: 5-demethoxyubiquinone hydroxylase, mitochondrial (Homo sapiens); experiment: Inhibition of COQ7 in human HeLa cells assessed as DMQ10 level per well at 10 uM after 2 days by HPLC analysis; assay type: cell-based
Lab note: cut-off is 2 ng. Strictly less in Activity is Y. Exactly 2 ng or more is N.

Here are 5 compounds together with their reported answers.
Oc1cc(-c2ccccc2)nn1-c1ncccc1Cl	Y
Oc1cc(C2CCCCC2)nn1-c1ccccn1	N
Oc1cc(-c2ccccc2)nn1-c1ccncc1	Y
CS(=O)(=O)c1ccc(-n2nc(-c3ccccc3)cc2O)nc1	N
Oc1cc(CC2CCCCC2)nn1-c1ccccn1	N

Just wondering, is Activity of "Clc1cc(-c2ccccc2)nn1-c1ccccn1" below 2 ng?
Y

Just wondering, is Activity of "Oc1cc(-c2ccccc2)nn1-c1cccnc1" below 2 ng?
Y

Just wondering, is Activity of "Oc1cc(-c2ccccc2)nn1-c1ccc(C(F)(F)F)cn1" below 2 ng?
N

Just wondering, is Activity of "Oc1cc(CCc2ccccc2)nn1-c1ccccn1" below 2 ng?
N

Just wondering, is Activity of "Oc1cc(-c2ccccc2)nn1-c1ccc(F)cn1" below 2 ng?
Y

Just wondering, is Activity of "Oc1cc(-c2ccccc2)nn1-c1ccccn1" below 2 ng?
Y

Just wondering, is Activity of "Cc1ccc(-n2nc(-c3ccccc3)cc2O)nc1" below 2 ng?
N
